// provenance: BigSolDB 2.1

- protocolConditions: in isopropanol, 283.15 K
endpointName: solubility (mole fraction)

Using the record for CCCCCCCC(=O)NCC(=O)O , state its measured solubility (mole fraction). 0.0239

---

- protocolConditions: in ethyl acetate, 308.05 K
endpointName: solubility (mole fraction)

Using the record for CCCCCCCC(=O)NCC(=O)O , state its measured solubility (mole fraction). 0.0223

---

- protocolConditions: in ethyl acetate, 323.15 K
endpointName: solubility (mole fraction)
Note: the reply should be a number with no unit written.

Using the record for CCCCCCCC(=O)NCC(=O)O , state its measured solubility (mole fraction). 0.0502

---

- protocolConditions: in acetone, 288.35 K
endpointName: solubility (mole fraction)
Note: the reply should be a number with no unit written.

Using the record for CCCCCCCC(=O)NCC(=O)O , state its measured solubility (mole fraction). 0.0369

---

- protocolConditions: in n-propanol, 293.05 K
endpointName: solubility (mole fraction)
Note: the reply should be a number with no unit written.

Using the record for CCCCCCCC(=O)NCC(=O)O , state its measured solubility (mole fraction). 0.0715

---

- protocolConditions: in isopentanol, 293.05 K
endpointName: solubility (mole fraction)
Note: the reply should be a number with no unit written.

Using the record for CCCCCCCC(=O)NCC(=O)O , state its measured solubility (mole fraction). 0.0657

---

- protocolConditions: in methyl acetate, 288.35 K
endpointName: solubility (mole fraction)
Note: the reply should be a number with no unit written.

Using the record for CCCCCCCC(=O)NCC(=O)O , state its measured solubility (mole fraction). 0.00718

---

- protocolConditions: in methyl acetate, 298.15 K
endpointName: solubility (mole fraction)

Using the record for CCCCCCCC(=O)NCC(=O)O , state its measured solubility (mole fraction). 0.0128

---

- protocolConditions: in cyclopentanone, 303.15 K
endpointName: solubility (mole fraction)
Note: the reply should be a number with no unit written.

Using the record for CCCCCCCC(=O)NCC(=O)O , state its measured solubility (mole fraction). 0.0789

---

- protocolConditions: in methyl acetate, 313.25 K
endpointName: solubility (mole fraction)
Note: the reply should be a number with no unit written.

Using the record for CCCCCCCC(=O)NCC(=O)O , state its measured solubility (mole fraction). 0.0327

---

- protocolConditions: in 2-butanone, 313.25 K
endpointName: solubility (mole fraction)
Note: the reply should be a number with no unit written.

Using the record for CCCCCCCC(=O)NCC(=O)O , state its measured solubility (mole fraction). 0.0667

---

- protocolConditions: in n-pentanol, 308.05 K
endpointName: solubility (mole fraction)
Note: the reply should be a number with no unit written.

Using the record for CCCCCCCC(=O)NCC(=O)O , state its measured solubility (mole fraction). 0.157

---

- protocolConditions: in isopropanol, 303.15 K
endpointName: solubility (mole fraction)
Note: the reply should be a number with no unit written.

Using the record for CCCCCCCC(=O)NCC(=O)O , state its measured solubility (mole fraction). 0.0533

---

- protocolConditions: in n-propanol, 283.15 K
endpointName: solubility (mole fraction)
Note: the reply should be a number with no unit written.

Using the record for CCCCCCCC(=O)NCC(=O)O , state its measured solubility (mole fraction). 0.0363

---

- protocolConditions: in methyl acetate, 323.15 K
endpointName: solubility (mole fraction)

Using the record for CCCCCCCC(=O)NCC(=O)O , state its measured solubility (mole fraction). 0.0586
